- target-of-assay: Grb2 SH2 domain (UniProt P62993 60-152, limits assumed)
- Construct: domain: SH2 domain
- Sequence (P62993 60-152 limits assumed): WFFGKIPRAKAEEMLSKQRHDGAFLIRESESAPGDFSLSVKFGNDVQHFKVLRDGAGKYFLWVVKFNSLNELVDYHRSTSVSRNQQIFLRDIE
- assay-name: fluorescence anisotropy, direct binding of the FAM-labeled ligand to the Grb2 SH2 domain
measurement-kind: Kd (nM)
Kindly provide the numeric value in nM only, without the unit symbol.

QUERY: Please look up its Kd: cyclo(AApYVNFFQ)-β-Ala-K(FAM) (peptide)
RESULT: 92
